Test system: RPMI-8226
Test: Cytotoxicity against human RPMI8226 cells after 48 hrs
Format: functional, cell-based
Conditions: RPMI-8226, 48 h
Assay Readout: pIC50
Note: pIC50 values are expressed as the negative base-10 logarithm of concentration in M.

Previously resolved entries follow.
Molecule	pIC50
COc1cc([C@@H]2c3cc4c(cc3[C@@H](NC(=O)CNC(=O)OC3CC(C)(C)N([O])C(C)(C)C3)[C@H]3COC(=O)[C@H]23)OCO4)cc(OC)c1O	6.48
COc1cc([C@@H]2c3cc4c(cc3[C@@H](NC(=O)[C@H](CCSC)NC(=O)OC3CC(C)(C)N([O])C(C)(C)C3)[C@H]3COC(=O)[C@H]23)OCO4)cc(OC)c1O	6.32
COc1cc([C@@H]2c3cc4c(cc3[C@@H](NC(=O)[C@@H](NC(=O)OC3CC(C)(C)N([O])C(C)(C)C3)C(C)C)[C@H]3COC(=O)[C@H]23)OCO4)cc(OC)c1O	7.21
COc1cc([C@@H]2c3cc4c(cc3[C@@H](NC(=O)[C@H](C)NC(=O)OC3CC(C)(C)N([O])C(C)(C)C3)[C@H]3COC(=O)[C@H]23)OCO4)cc(OC)c1O	6.59

Exam item: Determine its reported pIC50: `COc1cc([C@@H]2c3cc4c(cc3[C@@H](NC(=O)[C@H](CC(C)C)NC(=O)OC3CC(C)(C)N([O])C(C)(C)C3)[C@H]3COC(=O)[C@H]23)OCO4)cc(OC)c1O`
Marked response: 7.05

Exam item: Determine its reported pIC50: COc1cc([C@@H]2c3cc4c(cc3[C@@H](O[C@@H]3O[C@@H]5CO[C@@H](C)O[C@H]5[C@H](O)[C@H]3O)[C@H]3COC(=O)[C@H]23)OCO4)cc(OC)c1O [ETOPOSIDE]
Marked response: 6.85

Exam item: Determine its reported pIC50: COc1cc([C@@H]2c3cc4c(cc3[C@@H](NC(=O)[C@@H](NC(=O)OC3CC(C)(C)N([O])C(C)(C)C3)C(C)O)[C@H]3COC(=O)[C@H]23)OCO4)cc(OC)c1O (stereo partly drawn)
Marked response: 7.11

Exam item: Determine its reported pIC50: `COc1cc([C@@H]2c3cc4c(cc3[C@@H](NC(=O)[C@H](Cc3ccccc3)NC(=O)OC3CC(C)(C)N([O])C(C)(C)C3)[C@H]3COC(=O)[C@H]23)OCO4)cc(OC)c1O`
Marked response: 7.05
